Recorded IC50 by entry
# Target: pEGFR in CUTO14 cells (Homo sapiens, UniProt P00533, DUP767-769)
# Construct: endogenous in cells
# Sequence (P00533 with tags, fused parts or gaps DUP767-769): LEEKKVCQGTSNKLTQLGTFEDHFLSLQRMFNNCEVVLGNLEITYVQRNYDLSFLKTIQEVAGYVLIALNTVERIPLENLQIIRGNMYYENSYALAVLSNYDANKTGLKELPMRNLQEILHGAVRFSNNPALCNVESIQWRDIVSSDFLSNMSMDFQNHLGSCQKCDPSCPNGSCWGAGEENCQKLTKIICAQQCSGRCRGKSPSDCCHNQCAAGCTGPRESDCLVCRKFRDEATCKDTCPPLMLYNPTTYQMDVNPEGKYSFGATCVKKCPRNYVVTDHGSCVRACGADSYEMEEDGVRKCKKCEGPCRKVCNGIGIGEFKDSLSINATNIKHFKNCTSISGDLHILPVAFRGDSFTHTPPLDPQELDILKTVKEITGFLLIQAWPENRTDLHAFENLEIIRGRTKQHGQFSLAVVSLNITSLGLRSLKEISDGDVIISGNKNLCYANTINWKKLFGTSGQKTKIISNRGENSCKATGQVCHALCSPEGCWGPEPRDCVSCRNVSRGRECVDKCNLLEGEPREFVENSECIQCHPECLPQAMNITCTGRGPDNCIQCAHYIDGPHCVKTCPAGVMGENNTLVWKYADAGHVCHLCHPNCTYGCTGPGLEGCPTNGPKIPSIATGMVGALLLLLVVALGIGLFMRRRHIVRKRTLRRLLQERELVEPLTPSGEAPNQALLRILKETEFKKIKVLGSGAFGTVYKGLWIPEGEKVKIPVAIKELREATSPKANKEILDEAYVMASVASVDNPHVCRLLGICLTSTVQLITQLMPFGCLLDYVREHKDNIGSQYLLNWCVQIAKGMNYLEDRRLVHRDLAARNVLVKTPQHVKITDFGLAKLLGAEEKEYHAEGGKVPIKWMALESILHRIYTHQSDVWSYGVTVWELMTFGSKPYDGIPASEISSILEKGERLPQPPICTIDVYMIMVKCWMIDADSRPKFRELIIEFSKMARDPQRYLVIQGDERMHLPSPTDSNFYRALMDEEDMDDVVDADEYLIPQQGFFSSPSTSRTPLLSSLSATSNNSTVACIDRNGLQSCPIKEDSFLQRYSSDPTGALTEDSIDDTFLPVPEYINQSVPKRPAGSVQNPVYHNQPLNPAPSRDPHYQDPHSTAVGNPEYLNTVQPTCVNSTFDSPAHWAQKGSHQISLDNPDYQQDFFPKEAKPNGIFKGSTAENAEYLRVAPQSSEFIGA
# Protocol summary: Inhibitor activity on EGFR phosphorylation (pEGFR AlphaLISA, 2 h), CUTO14 cells

Molecule | Measured result
CCc1c(F)cccc1Nc1c(-c2ccncc2OC[C@]2(C)CCN2C(=O)/C=C/CN(C)C)[nH]c2c1C(=O)NCC2 [compound 427] | < 100 nM

Enquiry: Complete the entry with IC50 for C=CC(=O)N1CC[C@@]1(C)C#Cc1cnccc1-c1[nH]c2c(c1Nc1cccc(Cl)c1OC)C(=O)NCC2 [compound 550]
Return: > 1000 nM

Enquiry: Let me know recorded IC50 for C=CC(=O)N1CC(F)(F)C[C@@H]1C#Cc1cnccc1-c1[nH]c2c(c1Nc1cccc(Cl)c1OC)C(=O)NCC2 [compound 519] , thanks.
Return: < 100 nM

Enquiry: Identify IC50 associated with the molecule Cc1c(F)cccc1Nc1c(-c2ccncc2C#CC23CC(CN2C(=O)/C=C/CN(C)C)C3)[nH]c2c1C(=O)NCC2 [compound 451]
Return: < 100 nM

Enquiry: Consider the molecule C=CC(=O)N1CCN(C)C[C@@H]1COc1cnccc1-c1[nH]c2c(c1Nc1cccc(Cl)c1OC)C(=O)NCC2 [compound 565] and give its recorded IC50.
Return: 100 to 1000 nM

Enquiry: Consider the molecule C=C(F)C(=O)NC(C)(C)C#Cc1cnccc1-c1[nH]c2c(c1Nc1cccc(F)c1OC)C(=O)NCC2 [compound 389] . State its measured IC50.
Return: < 100 nM

Enquiry: Identify IC50 associated with the molecule COc1c(F)cccc1Nc1c(-c2ccncc2C#CC(C)(C)NC(=O)/C=C/CN[C@H]2CCOC2)[nH]c2c1C(=O)NCC2 [compound 395]
Return: 100 to 1000 nM

====

# Target: pEGFR in CUTO14 cells (Homo sapiens, UniProt P00533, DUP767-769)
# Construct: endogenous in cells
# Protocol summary: Inhibitor activity on EGFR phosphorylation (pEGFR AlphaLISA, 2 h), CUTO14 cells
Assay metric: IC50

Example results:
Molecule | IC50
COc1c(Cl)cccc1Nc1c(-c2ccncc2C#CC2(NC(=O)/C=C/CN(C)C)COC2)[nH]c2c1C(=O)NCC2 | < 100 nM
C=CC(=O)N1CC(C)(C)C1C#Cc1cnccc1-c1[nH]c2c(c1Nc1cccc(Cl)c1OC)C(=O)NCC2 (single isomer, unassigned) | < 100 nM
COc1c(F)cccc1Nc1c(-c2ccncc2C#CC23CC(CN2C(=O)/C=C/CN(C)C)C3)[nH]c2c1C(=O)NCC2 | < 100 nM
C=CC(=O)N1CCC[C@]1(C)C#Cc1cnccc1-c1[nH]c2c(c1Nc1cccc(F)c1CC)C(=O)NCC2 | < 100 nM

Enquiry: Fill in IC50 for record `C=CC(=O)NC(C)(C)C#Cc1cnccc1-c1[nH]c2c(c1Nc1cccc(F)c1OC)C(=O)NCC2`
Return: < 100 nM

Enquiry: Supply measured IC50 of `CC#CC(=O)N1CC[C@H]1C#Cc1cnccc1-c1[nH]c2c(c1Nc1cccc(F)c1OC)C(=O)NCC2` in your reply.
Return: < 100 nM

Enquiry: In one line, give reported IC50 of the entry `CC#CC(=O)N1CC[C@@H]1COc1cnccc1-c1[nH]c2c(c1Nc1cccc(Cl)c1F)C(=O)NCC2` .
Return: < 100 nM

====

# key: entry, value: pIC50
# Target: Ba/F3 cells with EGFR exon 20 NPG Ins D770_N771 (Homo sapiens, UniProt P00533, INS770NPG)
# Sequence (P00533 with tags, fused parts or gaps INS770NPG): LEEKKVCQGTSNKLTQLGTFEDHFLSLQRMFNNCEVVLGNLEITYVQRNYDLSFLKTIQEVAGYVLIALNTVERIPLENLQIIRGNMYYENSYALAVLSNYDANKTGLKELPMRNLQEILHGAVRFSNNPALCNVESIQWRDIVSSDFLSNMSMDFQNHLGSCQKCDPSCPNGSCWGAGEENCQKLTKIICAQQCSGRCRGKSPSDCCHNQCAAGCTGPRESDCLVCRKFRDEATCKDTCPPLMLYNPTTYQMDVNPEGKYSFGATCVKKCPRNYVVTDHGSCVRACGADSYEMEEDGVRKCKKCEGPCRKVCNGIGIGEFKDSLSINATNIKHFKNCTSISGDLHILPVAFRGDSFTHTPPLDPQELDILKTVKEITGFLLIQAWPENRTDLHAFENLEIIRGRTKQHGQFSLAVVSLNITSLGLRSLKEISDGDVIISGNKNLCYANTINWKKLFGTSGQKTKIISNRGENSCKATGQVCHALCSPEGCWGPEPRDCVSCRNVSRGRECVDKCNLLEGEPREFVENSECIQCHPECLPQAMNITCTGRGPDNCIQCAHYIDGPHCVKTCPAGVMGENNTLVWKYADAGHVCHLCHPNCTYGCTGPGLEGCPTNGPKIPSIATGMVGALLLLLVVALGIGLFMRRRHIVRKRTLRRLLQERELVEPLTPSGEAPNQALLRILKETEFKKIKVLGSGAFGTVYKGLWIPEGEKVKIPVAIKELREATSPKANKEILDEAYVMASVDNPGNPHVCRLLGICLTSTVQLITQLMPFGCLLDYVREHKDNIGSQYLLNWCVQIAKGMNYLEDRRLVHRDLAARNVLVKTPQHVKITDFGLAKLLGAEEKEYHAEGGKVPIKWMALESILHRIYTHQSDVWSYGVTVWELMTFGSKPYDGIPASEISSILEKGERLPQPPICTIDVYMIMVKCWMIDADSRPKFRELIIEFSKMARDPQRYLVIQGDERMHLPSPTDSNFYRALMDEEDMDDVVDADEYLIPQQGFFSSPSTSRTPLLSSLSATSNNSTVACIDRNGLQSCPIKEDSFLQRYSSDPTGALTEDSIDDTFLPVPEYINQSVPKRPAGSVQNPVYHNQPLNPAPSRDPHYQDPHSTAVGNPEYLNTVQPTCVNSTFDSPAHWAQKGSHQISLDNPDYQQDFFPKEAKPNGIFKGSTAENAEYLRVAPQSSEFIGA
# Protocol summary: EGFR activity: Ba/F3 cell viability (CellTiter-Glo, 72 h), EGFR exon 20 NPG insertion
# Condition info: EGFR exon 20 NPG Ins D770_N771, cell viability, read-out: BaF3 NPG IC50
pIC50: −log10 of the molar value.

Compound | Measured result
CC#CC(=O)N1CC[C@@H]1COc1cnccc1-c1[nH]c2c(c1Nc1cccc(Cl)c1F)C(=O)NCC2 [compound 407] | > 7.00

Enquiry: Output measured pIC50 for this item: C=C(F)C(=O)N1CC[C@@H]1COc1cnccc1-c1[nH]c2c(c1Nc1cc(F)cc(F)c1OC)C(=O)NCC2 [compound 365]
Return: 6.00 to 7.00

Enquiry: Give reported pIC50 value for COc1c(F)cccc1Nc1c(-c2ccncc2OCc2nnc3n2CCC3)[nH]c2c1C(=O)NCC2 [Compound 131]
Return: < 6.00

====

# Target: Ba/F3 cells with EGFR exon 20 NPG Ins D770_N771 (Homo sapiens, UniProt P00533, INS770NPG)
# Protocol summary: EGFR activity: Ba/F3 cell viability (CellTiter-Glo, 72 h), EGFR exon 20 NPG insertion
# Condition info: EGFR exon 20 NPG Ins D770_N771, cell viability, read-out: BaF3 NPG IC50
IC50 values, listed per item

Record excerpt, results attached:
Test smiles | Target | IC50
CC#CC(=O)N1CC[C@@H]1COc1cnccc1-c1[nH]c2cc[nH]c(=O)c2c1Nc1cccc(Cl)c1OC | Ba/F3 cells with EGFR exon 20 NPG Ins D770_N771 (Homo sapiens, UniProt P00533, INS770NPG) | < 100 nM
COc1c(F)cccc1Nc1c(-c2ccncc2C#C[C@@]2(C)CCCN2C(=O)/C=C/CN2CC[C@@H](OC)C2)[nH]c2c1C(=O)NCC2 | Ba/F3 cells with EGFR exon 20 NPG Ins D770_N771 (Homo sapiens, UniProt P00533, INS770NPG) | < 100 nM
COc1c(Cl)cccc1Nc1c(-c2ccncc2C#C[C@@]2(NC(=O)/C=C/CN(C)C)CCOC2)[nH]c2c1C(=O)NCC2 | Ba/F3 cells with EGFR exon 20 NPG Ins D770_N771 (Homo sapiens, UniProt P00533, INS770NPG) | < 100 nM

Enquiry: Supply reported IC50 belonging to this compound: `COc1c(F)cccc1Nc1c(-c2ccncc2OC[C@]2(C)CCN2C(=O)/C=C/CN(C)C)[nH]c2c1C(=O)NCC2`
Return: < 100 nM

Enquiry: Report measured IC50; entry is `COc1c(F)cccc1Nc1c(-c2ccncc2C#C[C@@]2(C)COCCN2C(=O)/C=C/CN(C)C)[nH]c2c1C(=O)NCC2`
Return: < 100 nM

Enquiry: Let me know recorded IC50 for `C=CC(=O)N1[C@@H](COc2cnccc2-c2[nH]c3c(c2Nc2cccc(Cl)c2OC)C(=O)NCC3)C[C@H]1C` , thanks.
Return: < 100 nM

Enquiry: Kindly indicate its recorded IC50. Item: `C=CC(=O)N1CC(C)(C)C[C@@H]1COc1cnccc1-c1[nH]c2c(c1Nc1cccc(Cl)c1OC)C(=O)NCC2`
Return: < 100 nM

Enquiry: Could you please provide reported IC50 for `COc1c(F)cccc1Nc1c(-c2ccncc2OC[C@@]2(C)CCN2C(=O)/C=C/CN(C)C)[nH]c2c1C(=O)NCC2` ? Thanks!
Return: < 100 nM

Enquiry: Consider the compound `C=CC(=O)N1CCN(C)C[C@@H]1COc1cnccc1-c1[nH]c2c(c1Nc1cccc(Cl)c1OC)C(=O)NCC2` and give its recorded IC50.
Return: 100 to 1000 nM

Enquiry: // Input: `Cc1c(F)cccc1Nc1c(-c2ccncc2C#CC(C)(C)C)[nH]c2c1C(=O)NCC2` . Output its IC50 only.
Return: < 100 nM

Enquiry: Return reported IC50. Input compound: `C=CC(=O)NC1(C#Cc2cnccc2-c2[nH]c3c(c2Nc2cccc(Cl)c2OC)C(=O)NCC3)CNC1`
Return: > 1000 nM

Enquiry: Give the reported IC50 for this compound. `COc1c(F)cccc1Nc1c(-c2ccncc2C#C[C@H]2CCCN2C(=O)/C=C/CN(C)C)[nH]c2c1C(=O)NCC2`
Return: 100 to 1000 nM

Enquiry: Report IC50 for `C=CC(=O)NC1(C#Cc2cnccc2-c2[nH]c3c(c2Nc2cccc(F)c2OC)C(=O)NCC3)CCC1`
Return: < 100 nM

Enquiry: Hello, please tell me recorded IC50 for this one: `CC#CC(=O)N1CCC[C@]1(C)C#Cc1cnccc1-c1[nH]c2c(c1Nc1cc(F)cc(Cl)c1OC)C(=O)NCC2`
Return: < 100 nM

====

# Target: Ba/F3 cells with EGFR WT (Homo sapiens)
# Construct: expressed in transfected cells; host or cells: Ba/F3 (murine pro-B cells), retroviral transduction, puromycin selection, maintained with EGF
# Sequence (P00533 25-1210): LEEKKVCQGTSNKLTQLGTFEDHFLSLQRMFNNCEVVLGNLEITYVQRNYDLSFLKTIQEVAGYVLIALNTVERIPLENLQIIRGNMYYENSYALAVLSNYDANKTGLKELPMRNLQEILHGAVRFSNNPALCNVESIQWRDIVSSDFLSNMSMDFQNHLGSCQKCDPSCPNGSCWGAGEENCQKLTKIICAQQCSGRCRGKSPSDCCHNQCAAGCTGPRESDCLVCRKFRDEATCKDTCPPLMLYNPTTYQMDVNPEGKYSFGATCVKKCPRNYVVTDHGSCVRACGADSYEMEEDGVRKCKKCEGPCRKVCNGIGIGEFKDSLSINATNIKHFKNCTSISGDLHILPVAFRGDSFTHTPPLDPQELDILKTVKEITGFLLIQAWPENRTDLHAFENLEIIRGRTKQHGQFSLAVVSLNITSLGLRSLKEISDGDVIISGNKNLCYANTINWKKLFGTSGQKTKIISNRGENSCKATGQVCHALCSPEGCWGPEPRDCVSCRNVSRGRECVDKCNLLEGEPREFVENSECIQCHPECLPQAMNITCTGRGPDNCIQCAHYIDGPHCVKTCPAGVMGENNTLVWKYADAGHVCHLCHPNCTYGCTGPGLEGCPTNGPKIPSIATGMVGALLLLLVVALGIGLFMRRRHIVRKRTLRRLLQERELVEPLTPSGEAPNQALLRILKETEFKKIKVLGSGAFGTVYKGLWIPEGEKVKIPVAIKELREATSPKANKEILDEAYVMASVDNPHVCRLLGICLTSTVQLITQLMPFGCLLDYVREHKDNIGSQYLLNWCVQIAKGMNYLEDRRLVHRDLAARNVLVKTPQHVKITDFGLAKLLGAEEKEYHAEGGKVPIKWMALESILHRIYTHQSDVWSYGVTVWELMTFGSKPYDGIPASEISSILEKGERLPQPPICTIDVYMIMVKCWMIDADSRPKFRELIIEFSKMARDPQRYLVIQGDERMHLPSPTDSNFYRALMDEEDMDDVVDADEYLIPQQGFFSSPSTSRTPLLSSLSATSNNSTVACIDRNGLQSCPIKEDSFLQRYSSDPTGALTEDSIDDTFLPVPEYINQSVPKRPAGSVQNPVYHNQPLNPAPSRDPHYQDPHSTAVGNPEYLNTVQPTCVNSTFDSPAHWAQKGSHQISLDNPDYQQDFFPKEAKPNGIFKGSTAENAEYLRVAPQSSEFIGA
# Protocol summary: EGFR activity: Ba/F3 cell viability (CellTiter-Glo, 72 h), EGFR WT
# Type: cell-based
# Condition info: read-out: BaF3 WT IC50
pIC50: −log10 of the molar value.
A collection of molecules and their measured pIC50

Molecule | pIC50
CC#CC(=O)N1CCOC[C@H]1COc1cnccc1-c1[nH]c2c(c1Nc1cccc(Cl)c1OC)C(=O)NCC2 | 6.00 to 7.00
C=CC(=O)N1[C@H]2CC[C@H](C2)[C@@H]1C#Cc1cnccc1-c1[nH]c2c(c1Nc1cccc(Cl)c1OC)C(=O)NCC2 | 6.00 to 7.00
COc1c(Cl)cccc1Nc1c(-c2ccncc2C#CC2(C)COC2)[nH]c2c1C(=O)NCC2 | < 6.00
COc1c(F)cccc1Nc1c(-c2ccncc2C#C[C@@]2(C)CCCN2C(=O)/C=C/CN2CC(OC)C2)[nH]c2c1C(=O)NCC2 | 6.00 to 7.00
COc1c(Cl)cc(F)cc1Nc1c(-c2ccncc2C#CC23CC(CN2C(=O)/C=C/CN(C)C)C3)[nH]c2c1C(=O)NCC2 | 6.00 to 7.00

Enquiry: Answer with reported pIC50 of `COc1c(Cl)cc(F)cc1Nc1c(-c2ccncc2C#C[C@@]2(C)CCCN2C(=O)C#CCN(C)C)[nH]c2c1C(=O)NCC2`
Return: 6.00 to 7.00

Enquiry: Let me know recorded pIC50 for `C=C(F)C(=O)N1CC[C@@H]1COc1cnccc1-c1[nH]c2c(c1Nc1cccc(Cl)c1OC)C(=O)NCC2` , thanks.
Return: 6.00 to 7.00

Enquiry: Read off the recorded pIC50 for `COc1c(Cl)cccc1Nc1c(-c2ccncc2C#C[C@H]2CCN2C(=O)/C=C/CN(C)C)[nH]c2c1C(=O)NCC2`
Return: 6.00 to 7.00

Enquiry: Complete the entry with pIC50 for `C=CC(=O)NC1(C#Cc2cnccc2-c2[nH]c3c(c2Nc2cc(F)cc(Cl)c2OC)C(=O)NCC3)COC1`
Return: 6.00 to 7.00

Enquiry: Please report the measured pIC50 for `C=C(F)C(=O)NC(C)(C)C#Cc1cnccc1-c1[nH]c2c(c1Nc1cccc(F)c1OC)C(=O)NCC2`
Return: 6.00 to 7.00

Enquiry: Please indicate pIC50 recorded for `COc1c(Cl)cccc1Nc1c(-c2ccncc2C#C[C@@H]2CCN2C(=O)/C=C/CN(C)C)[nH]c2c1C(=O)NCC2`
Return: > 7.00

Enquiry: In one line, give reported pIC50 of the entry `COc1ccccc1C#Cc1cnccc1-c1[nH]c2c(c1Nc1cccc(Cl)c1OC)C(=O)NCC2` .
Return: 6.00 to 7.00

Enquiry: Report pIC50, nothing else, for this molecule: `C=CC(=O)NC(C)(C)C#Cc1cnccc1-c1[nH]c2c(c1Nc1cccc(F)c1C)C(=O)NCC2`
Return: > 7.00

Enquiry: Please report the measured pIC50 for `COc1cccnc1COc1cnccc1-c1[nH]c2c(c1Nc1cccc(F)c1OC)C(=O)NCC2`
Return: 6.00 to 7.00
